Provenance of the data: patent US7074789B2

Measured IC50 by item
target: c-Met (Homo sapiens, UniProt P08581); construct: Kinases are expressed as either kinase domains or full length constructs; made in house; experiment: Kinase inhibition assay (33P transfer), c-Met; format: biochemical; conditions: Table 2, kinase inhibition class; read-out: Met-1
Sequence (P08581 25-1390): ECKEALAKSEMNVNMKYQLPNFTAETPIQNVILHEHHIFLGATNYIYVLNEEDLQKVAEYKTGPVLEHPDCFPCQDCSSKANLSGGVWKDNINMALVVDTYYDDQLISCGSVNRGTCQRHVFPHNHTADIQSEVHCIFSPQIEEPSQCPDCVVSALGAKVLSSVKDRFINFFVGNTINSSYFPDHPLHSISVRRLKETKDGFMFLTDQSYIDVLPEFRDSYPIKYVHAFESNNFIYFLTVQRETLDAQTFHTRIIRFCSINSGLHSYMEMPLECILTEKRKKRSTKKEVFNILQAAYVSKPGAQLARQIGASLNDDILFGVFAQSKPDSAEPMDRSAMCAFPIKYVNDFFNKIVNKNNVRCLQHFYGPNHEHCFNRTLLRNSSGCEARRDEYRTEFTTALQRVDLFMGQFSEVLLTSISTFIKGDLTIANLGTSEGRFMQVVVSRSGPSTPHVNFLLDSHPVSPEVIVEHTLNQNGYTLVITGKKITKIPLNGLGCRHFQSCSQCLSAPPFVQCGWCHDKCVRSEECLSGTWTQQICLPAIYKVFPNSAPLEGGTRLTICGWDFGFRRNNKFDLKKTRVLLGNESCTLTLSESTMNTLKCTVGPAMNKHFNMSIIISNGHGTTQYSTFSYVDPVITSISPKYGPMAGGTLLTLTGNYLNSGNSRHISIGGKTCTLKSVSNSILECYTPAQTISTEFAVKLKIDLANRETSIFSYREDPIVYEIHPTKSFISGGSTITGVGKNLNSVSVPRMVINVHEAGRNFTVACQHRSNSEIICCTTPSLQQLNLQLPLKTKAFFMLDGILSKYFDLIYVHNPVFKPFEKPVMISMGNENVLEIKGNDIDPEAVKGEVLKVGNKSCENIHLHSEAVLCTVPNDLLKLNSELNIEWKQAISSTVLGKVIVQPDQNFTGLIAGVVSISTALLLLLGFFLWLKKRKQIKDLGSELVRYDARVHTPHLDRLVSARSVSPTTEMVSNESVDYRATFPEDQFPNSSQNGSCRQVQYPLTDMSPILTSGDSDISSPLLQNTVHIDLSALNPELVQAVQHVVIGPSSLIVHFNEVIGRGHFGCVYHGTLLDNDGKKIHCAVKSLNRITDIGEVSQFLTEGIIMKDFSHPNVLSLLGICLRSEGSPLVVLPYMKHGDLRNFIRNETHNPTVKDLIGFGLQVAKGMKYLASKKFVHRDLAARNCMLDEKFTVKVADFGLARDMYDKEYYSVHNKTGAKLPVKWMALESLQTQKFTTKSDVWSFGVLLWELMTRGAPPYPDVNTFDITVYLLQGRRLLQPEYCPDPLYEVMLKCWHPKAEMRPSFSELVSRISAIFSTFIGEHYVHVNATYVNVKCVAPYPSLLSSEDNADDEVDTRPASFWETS

Known results for compounds:
compound: COc1cc(Nc2ncnc(-n3c(NC(CCO)c4ccccc4)nc4ccccc43)n2)cc(OC)c1OC (stereo not drawn)
IC50: > 8.53 µM
//
compound: COc1ccc(Nc2ncnc(-n3c(N)nc4ccccc43)n2)cc1
IC50: 1.2 to 7.2 µM
//
compound: COc1ccc(-c2ncnc(Nc3cc(OC)c(OC)c(OC)c3)n2)cc1OC
IC50: > 11.3 µM
//
compound: NC(=O)c1ccc(Nc2ncnc(Nc3cc(-c4ccco4)n[nH]3)n2)cc1
IC50: 1.1 to 6.62 µM
//
compound: COc1ccc(Nc2ncnc(Nc3ccc(OCc4ccccc4)cc3)n2)cc1OC
IC50: 8.15 to 10.5 µM

Record request: IC50 value, item "CN(c1cccc(Cl)c1)c1ncnc(Nc2ncccn2)n1" > 14.3 µM

Repeat for the following compound: "Cc1ccc2c(c1)CCCN2c1ncnc(Nc2cccc(CO)c2)n1" < 1.15 µM

Repeat for the following compound: "O=c1[nH]c2ccccc2n1-c1ncnc(Nc2cccc(S(=O)(=O)CCO)c2)n1" > 10.9 µM

Repeat for the following compound: "O=c1[nH]c2ccccc2n1-c1ncnc(Nc2cccc3ccccc23)n1" > 12.7 µM

---

Measured IC50 by item
molecular target: c-Met (Homo sapiens, UniProt P08581); construct: Kinases are expressed as either kinase domains or full length constructs; made in house; assay: Kinase inhibition assay (33P transfer), c-Met; format: biochemical; conditions: Table 2, kinase inhibition class; read-out: Met-1

Known results for compounds:
compound: COc1cc(Nc2ncnc(Nc3cc(-c4cccs4)n[nH]3)n2)cc(OC)c1OC [Compound 318]
subjectOfTest: c-Met (Homo sapiens, UniProt P08581)
IC50: < 0.94 µM
//
compound: c1ccc(-c2ncnc(Nc3ccc(OCCCN4CCOCC4)cc3)n2)cc1 [Compound 154]
subjectOfTest: c-Met (Homo sapiens, UniProt P08581)
IC50: > 11.5 µM
//
compound: COc1ccc(Nc2ncnc(NCCCN3CCN(C)CC3)n2)cc1OC [Compound 786]
subjectOfTest: c-Met (Homo sapiens, UniProt P08581)
IC50: > 11.6 µM
//
compound: COc1cc(Nc2nc3ccccc3n2-c2ncnc(Nc3cc(OC)c(OC)c(OC)c3)n2)cc(OC)c1 [Compound 399]
subjectOfTest: c-Met (Homo sapiens, UniProt P08581)
IC50: > 8.5 µM
//
compound: COc1cc(Nc2ncnc(-c3cccs3)n2)cc(OC)c1OC [Compound 217]
subjectOfTest: c-Met (Homo sapiens, UniProt P08581)
IC50: 10.2 to 13.1 µM

Record request: IC50 value, item COc1cc(Nc2ncnc(Nc3[nH]ncc3-c3cccc(Cl)c3)n2)cc(OC)c1OC [Compound 999] > 9.91 µM

---

Measured pIC50 by item
biological target: Lck (Homo sapiens, UniProt P06239); construct: Kinases are expressed as either kinase domains or full length constructs; made in house; test: Kinase inhibition assay (33P transfer), Lck; format: biochemical; settings: Table 3; read-out: Lck-1
Sequence (P06239 whole entry, species assumed, the tested form may be a part): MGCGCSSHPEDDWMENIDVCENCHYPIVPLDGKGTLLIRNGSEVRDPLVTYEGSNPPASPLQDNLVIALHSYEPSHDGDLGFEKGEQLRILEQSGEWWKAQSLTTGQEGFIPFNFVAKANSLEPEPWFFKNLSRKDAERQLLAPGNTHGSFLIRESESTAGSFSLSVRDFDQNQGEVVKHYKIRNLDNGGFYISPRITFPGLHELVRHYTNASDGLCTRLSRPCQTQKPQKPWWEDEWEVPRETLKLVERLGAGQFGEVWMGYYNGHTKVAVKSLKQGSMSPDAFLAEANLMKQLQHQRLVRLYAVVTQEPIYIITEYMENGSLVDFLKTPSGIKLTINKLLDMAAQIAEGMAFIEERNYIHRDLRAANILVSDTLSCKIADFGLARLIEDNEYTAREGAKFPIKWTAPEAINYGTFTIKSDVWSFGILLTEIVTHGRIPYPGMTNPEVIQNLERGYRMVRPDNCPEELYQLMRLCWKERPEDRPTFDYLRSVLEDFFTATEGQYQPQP
pIC50: −log10 of the molar value.

Known results for molecules:
molecule: COc1ccc(Nc2ccc(Nc3ncnc(Nc4cc(OC)c(OC)c(OC)c4)n3)cc2)cc1 [Compound 922]
result: 5.30 to 6.07

molecule: COC(=O)c1cc(Nc2ncnc(Nc3cc(-c4ccco4)n[nH]3)n2)cc(C(=O)OC)c1 [Compound 343]
result: < 4.99

molecule: COc1cc(Nc2ncnc(Nc3ccc4c(c3)Cc3ccccc3-4)n2)cc(OC)c1OC [Compound 95]
result: 5.26 to 6.04

molecule: c1csc(-c2ncnc(Nc3ccc4c(c3)OCO4)n2)c1 [Compound 1072]
result: < 4.82

molecule: COc1ccc(N(C)c2ncnc(Nc3cc(OC)c(OC)c(OC)c3)n2)cc1 [Compound 106]
result: 5.06 to 5.22

Missing value: pIC50, Lck (Homo sapiens, UniProt P06239), entry COc1cc(Nc2ncnc(-n3c(NCCO)nc4ccccc43)n2)cc(OC)c1OC [Compound 391] . Fill in? 4.99 to 5.10

Repeat for the following molecule: CCOC(=O)Cc1ccc(Nc2ncnc(-c3ccccc3)n2)cc1 [Compound 164] < 4.87

---

target: Flt-1 (Homo sapiens)
Sequence (P17948 27-1338, species assumed): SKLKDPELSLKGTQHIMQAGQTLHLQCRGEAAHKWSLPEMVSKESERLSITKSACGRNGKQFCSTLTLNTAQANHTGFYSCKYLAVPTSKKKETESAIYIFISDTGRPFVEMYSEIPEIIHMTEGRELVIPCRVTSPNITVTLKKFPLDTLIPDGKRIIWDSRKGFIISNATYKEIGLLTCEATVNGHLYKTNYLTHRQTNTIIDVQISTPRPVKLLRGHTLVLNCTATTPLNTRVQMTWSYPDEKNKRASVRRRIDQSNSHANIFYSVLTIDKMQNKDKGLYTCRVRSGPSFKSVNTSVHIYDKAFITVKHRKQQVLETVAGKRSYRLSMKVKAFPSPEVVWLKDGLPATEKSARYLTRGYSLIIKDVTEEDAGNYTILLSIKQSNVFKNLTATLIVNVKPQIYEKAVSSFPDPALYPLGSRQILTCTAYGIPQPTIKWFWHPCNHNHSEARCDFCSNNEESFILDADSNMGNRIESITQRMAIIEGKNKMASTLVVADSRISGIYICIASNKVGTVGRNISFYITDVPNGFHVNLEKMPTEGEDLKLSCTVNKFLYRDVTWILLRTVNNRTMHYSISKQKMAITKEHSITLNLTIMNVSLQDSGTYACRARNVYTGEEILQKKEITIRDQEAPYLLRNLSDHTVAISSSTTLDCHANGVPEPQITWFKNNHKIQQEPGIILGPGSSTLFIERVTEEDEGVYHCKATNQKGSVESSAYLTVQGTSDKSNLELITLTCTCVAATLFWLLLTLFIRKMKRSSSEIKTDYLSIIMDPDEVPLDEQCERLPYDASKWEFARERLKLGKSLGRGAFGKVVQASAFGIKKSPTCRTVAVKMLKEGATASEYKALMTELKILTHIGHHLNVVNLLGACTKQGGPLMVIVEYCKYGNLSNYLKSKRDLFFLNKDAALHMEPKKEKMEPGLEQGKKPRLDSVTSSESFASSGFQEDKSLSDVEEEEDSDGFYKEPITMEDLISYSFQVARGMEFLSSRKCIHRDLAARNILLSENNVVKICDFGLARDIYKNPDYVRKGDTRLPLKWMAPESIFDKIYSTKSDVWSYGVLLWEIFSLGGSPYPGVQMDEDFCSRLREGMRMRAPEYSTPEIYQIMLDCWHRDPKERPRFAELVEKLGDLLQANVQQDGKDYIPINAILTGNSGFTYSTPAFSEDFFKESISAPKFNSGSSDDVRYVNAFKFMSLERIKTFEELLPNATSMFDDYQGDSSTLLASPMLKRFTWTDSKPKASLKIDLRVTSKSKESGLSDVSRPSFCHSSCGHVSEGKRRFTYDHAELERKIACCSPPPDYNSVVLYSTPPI
pIC50: −log10 of the molar value.
Measured pIC50 by item

Known results for compounds:
compound: COc1cc(Nc2ncnc(Nc3cccc(O)c3)n2)cc(OC)c1OC [Compound 78]
subjectOfTest: Flt-1 (Homo sapiens)
result: > 5.97
//
compound: COc1cc(Nc2ncnc(-n3c(Nc4ccc5[nH]ccc5c4)nc4ccccc43)n2)cc(OC)c1OC [Compound 376]
subjectOfTest: Flt-1 (Homo sapiens)
result: > 6.10
//
compound: COc1cc(Nc2ncnc(-n3c(N[C@@H](CO)c4ccccc4)nc4ccccc43)n2)cc(OC)c1OC [Compound 1036]
subjectOfTest: Flt-1 (Homo sapiens)
result: > 6.11
//
compound: COc1ccc(Nc2ncnc(Nc3ccc(N(C)C)cc3)n2)cc1OC [Compound 114]
subjectOfTest: Flt-1 (Homo sapiens)
result: < 4.91
//
compound: COc1cc(Nc2ncnc(-n3c(NCc4ccc([N+](=O)[O-])cc4)nc4ccccc43)n2)cc(OC)c1OC [Compound 952]
subjectOfTest: Flt-1 (Homo sapiens)
result: 5.34 to 6.12
//
compound: COc1cc(Nc2ncnc(Nc3ccc(OCc4ccccc4)cc3)n2)cc(OC)c1 [Compound 156]
subjectOfTest: Flt-1 (Homo sapiens)
result: 5.09 to 5.25

Turning to the following compound.
Record request: pIC50 value, item COc1cc(Nc2ncnc(Nc3ccc(C(=O)O)cc3)n2)cc(OC)c1OC [Compound 104] 5.22 to 6.00

---

target: AKT (Homo sapiens, UniProt Q9Y243); construct: Kinases are expressed as either kinase domains or full length constructs; made in house; test: Kinase inhibition assay (33P transfer), AKT; format: biochemical; conditions: Table 2, kinase inhibition class; read-out: AKT3-1
Sequence (Q9Y243 whole entry, the tested form may be a part): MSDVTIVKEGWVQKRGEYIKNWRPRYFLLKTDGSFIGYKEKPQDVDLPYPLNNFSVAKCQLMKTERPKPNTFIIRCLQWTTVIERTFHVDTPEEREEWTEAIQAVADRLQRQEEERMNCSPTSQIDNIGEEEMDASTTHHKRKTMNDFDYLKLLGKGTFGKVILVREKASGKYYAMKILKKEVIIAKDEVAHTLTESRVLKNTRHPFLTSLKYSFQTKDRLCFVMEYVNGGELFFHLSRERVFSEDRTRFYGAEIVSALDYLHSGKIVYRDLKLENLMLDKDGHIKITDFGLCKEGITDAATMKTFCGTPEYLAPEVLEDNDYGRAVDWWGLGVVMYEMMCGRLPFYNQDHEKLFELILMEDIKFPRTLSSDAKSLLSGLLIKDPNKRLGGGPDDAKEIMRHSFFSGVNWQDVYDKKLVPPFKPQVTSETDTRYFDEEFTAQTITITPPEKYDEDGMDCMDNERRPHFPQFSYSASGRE
pIC50: −log10 of the molar value.
measuredAttribute: pIC50

Known results for molecules:
smilesNotation: COc1cc(Nc2ncnc(-n3cc(CC(N)=O)c4ccccc43)n2)cc(OC)c1OC
pIC50: < 4.98
//
smilesNotation: COc1ccc(Nc2ncnc(Nc3cccc(C)c3)n2)cc1OC
pIC50: < 4.87
//
smilesNotation: COc1cc(Nc2ncnc(Nc3c(C)n(C)n(-c4ccccc4)c3=O)n2)cc(OC)c1OC
pIC50: < 5.01
//
smilesNotation: COc1cccc(Nc2ncnc(Nc3cc(OC)c(OC)c(OC)c3)n2)c1
pIC50: < 4.93

Missing value: pIC50, AKT (Homo sapiens, UniProt Q9Y243), entry "COc1cc(Nc2ncnc(Cl)n2)cc(OC)c1OC" . Fill in? < 4.82

Repeat for the following molecule: "COc1ccc2c(c1)c(CCN(C)C)cn2-c1ncnc(Nc2cc(OC)c(OC)c(OC)c2)n1" < 5.03

Repeat for the following molecule: "COc1cc(Nc2ncnc(-n3c(NCc4ccc(Cl)cc4F)nc4ccccc43)n2)cc(OC)c1OC" < 5.08

Repeat for the following molecule: "COc1cc(Nc2ncnc(N(C)c3ccc(Cl)cc3)n2)cc(OC)c1OC" < 4.95

Repeat for the following molecule: "COc1cc(Nc2ncnc(-c3cccnc3NCc3ccc(F)cc3)n2)cc(OC)c1OCCN1CCOCC1" < 5.10

---

Measured pIC50 by item
target: Lck (Homo sapiens, UniProt P06239); construct: Kinases are expressed as either kinase domains or full length constructs; made in house; assay: Kinase inhibition assay (33P transfer), Lck; format: biochemical; conditions: Table 3; read-out: Lck-1
pIC50: −log10 of the molar value.

Record request: pIC50 value, item COc1cc(Nc2ncnc(NN3CCOCC3)n2)cc(OC)c1OC [Compound 103] < 4.91

Repeat for the following molecule: COc1ccccc1Nc1ncnc(Nc2cc(OC)c(OC)c(OC)c2)n1 [Compound 90] 5.20 to 5.98

Repeat for the following molecule: COc1cc(Nc2ncnc(N3CCN(c4ccccn4)CC3)n2)cc(OC)c1OC [Compound 213] < 4.97

---

target: EGFR (Homo sapiens, UniProt P00533); construct: Kinases are expressed as either kinase domains or full length constructs; made in house; assay: Kinase inhibition assay (33P transfer), EGFR; format: biochemical; conditions: Table 2, kinase inhibition class; read-out: EGFR-1
Sequence (P00533 25-1210, species assumed): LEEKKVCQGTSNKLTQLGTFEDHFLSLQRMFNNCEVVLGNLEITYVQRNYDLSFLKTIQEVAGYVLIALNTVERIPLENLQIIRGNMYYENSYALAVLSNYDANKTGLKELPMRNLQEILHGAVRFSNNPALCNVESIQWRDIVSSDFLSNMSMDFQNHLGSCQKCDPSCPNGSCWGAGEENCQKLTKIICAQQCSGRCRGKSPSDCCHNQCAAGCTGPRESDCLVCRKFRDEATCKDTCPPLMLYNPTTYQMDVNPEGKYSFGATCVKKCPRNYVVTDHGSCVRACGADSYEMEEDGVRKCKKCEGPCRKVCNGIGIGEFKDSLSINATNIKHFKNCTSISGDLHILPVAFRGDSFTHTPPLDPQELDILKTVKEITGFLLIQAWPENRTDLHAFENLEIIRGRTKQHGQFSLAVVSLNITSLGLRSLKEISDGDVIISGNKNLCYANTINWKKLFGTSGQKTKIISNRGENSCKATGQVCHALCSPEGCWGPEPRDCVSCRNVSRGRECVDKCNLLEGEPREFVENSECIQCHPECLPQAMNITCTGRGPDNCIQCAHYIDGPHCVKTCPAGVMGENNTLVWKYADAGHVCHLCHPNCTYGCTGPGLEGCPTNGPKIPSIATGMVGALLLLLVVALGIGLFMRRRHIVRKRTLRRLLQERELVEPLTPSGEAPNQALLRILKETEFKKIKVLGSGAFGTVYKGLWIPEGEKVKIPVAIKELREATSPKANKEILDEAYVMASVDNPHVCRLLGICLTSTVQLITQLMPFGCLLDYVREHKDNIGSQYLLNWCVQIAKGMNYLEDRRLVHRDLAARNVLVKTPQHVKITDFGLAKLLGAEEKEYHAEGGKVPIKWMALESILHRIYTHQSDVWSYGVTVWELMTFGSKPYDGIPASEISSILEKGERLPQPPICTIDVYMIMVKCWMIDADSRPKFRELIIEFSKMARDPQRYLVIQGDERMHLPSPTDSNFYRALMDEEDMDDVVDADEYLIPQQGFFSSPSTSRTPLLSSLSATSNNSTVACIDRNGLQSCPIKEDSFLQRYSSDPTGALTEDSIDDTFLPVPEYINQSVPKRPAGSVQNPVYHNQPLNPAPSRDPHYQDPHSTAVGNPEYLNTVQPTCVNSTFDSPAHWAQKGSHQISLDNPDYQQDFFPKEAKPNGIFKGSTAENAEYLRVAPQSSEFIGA
Measured IC50 by item

Known results for compounds:
smilesNotation: COc1cc(Nc2ncnc(-c3cccs3)n2)cc(OC)c1OC
measuredAttribute: IC50
result: > 13.1 µM
//
smilesNotation: O=c1[nH]c2ccccc2n1-c1ncnc(Nc2ccc(C(F)(F)F)cc2)n1
measuredAttribute: IC50
result: > 12.1 µM
//
smilesNotation: COc1ccc(Nc2ncnc(Nc3cc(-c4ccco4)n[nH]3)n2)cc1OC
measuredAttribute: IC50
result: 1.05 to 6.33 µM
//
smilesNotation: O=c1[nH]c2ccccc2n1-c1ncnc(Nc2ccncn2)n1
measuredAttribute: IC50
result: 7.84 to 11.4 µM
//
smilesNotation: COc1cc(Nc2ncnc(-n3c(NCCc4ccccc4)nc4ccccc43)n2)cc(OC)c1OC
measuredAttribute: IC50
result: 0.804 to 4.82 µM

Record request: IC50 value, item "COc1ccc(Nc2ncnc(Nc3ccc(OCc4ccccc4)cc3)n2)cc1" > 11.3 µM

Repeat for the following compound: "Nc1nc2ccccc2n1-c1ncnc(Nc2ccccn2)n1" > 14.8 µM

Repeat for the following compound: "COc1cc(Nc2ncnc(-n3c(NCCc4cccnc4)nc4ccccc43)n2)cc(OC)c1OC" > 9.03 µM

Repeat for the following compound: "CCCN(CC1CC1)c1ncnc(Nc2cc(OC)c(OC)c(OC)c2)n1" 9.37 to 12 µM

Repeat for the following compound: "COc1cc(Nc2ncnc(-n3c(NCCc4ccncc4)nc4ccccc43)n2)cc(OC)c1OC" > 9.03 µM

Repeat for the following compound: "ClCc1ccccc1Nc1ncnc(-n2cccc2)n1" > 15.7 µM

Repeat for the following compound: "COc1cc(Nc2ncnc(Nc3ccc(NS(=O)(=O)c4ccc([N+](=O)[O-])cc4)cc3)n2)cc(OC)c1OC" 0.723 to 4.34 µM

Repeat for the following compound: "Cc1cccc(Nc2ncnc(Nc3ccc4[nH]ncc4c3)n2)c1" < 1.26 µM

Repeat for the following compound: "COc1cc(Nc2ncnc(N(C)c3cccc(Cl)c3)n2)cc(OC)c1OC" < 0.995 µM

Repeat for the following compound: "COc1cc(Nc2ncnc(Nc3cc(Cl)ccc3C)n2)cc(OC)c1OC" < 0.995 µM

Repeat for the following compound: "COc1cc(Nc2ncnc(-c3cccnc3NCc3ccccn3)n2)cc(OC)c1OC" > 10.1 µM

Repeat for the following compound: "COc1cc(Nc2ncnc(N3CCc4ccccc4C3)n2)cc(OC)c1OC" > 11.4 µM

Repeat for the following compound: "COc1cc(Nc2ncnc(-n3c(Nc4ccccc4)nc4ccccc43)n2)cc(OC)c1OC" > 9.58 µM

Repeat for the following compound: "Nc1nc2ccccc2n1-c1ncnc(Nc2ccc(-c3cnco3)cc2)n1" 1.08 to 6.48 µM

Repeat for the following compound: "COc1cc(NC(=O)Nc2ncnc(Nc3cc(OC)c(OC)c(OC)c3)n2)cc(OC)c1" > 9.86 µM

Repeat for the following compound: "CC(=O)NCc1ccc(Nc2ncnc(Nc3cc(-c4ccco4)n[nH]3)n2)cc1" 1.02 to 6.15 µM
